Test system: IFN-α secretion, peripheral blood mononuclear cells (PBMCs)
Experiment: Suppression of IFN-α secretion in ODN2216-treated PBMCs (ELISA)
Assay type: cell-based
Conditions: PBMC, 1 μM, 500 nM ODN2216, 72 hours, read-out: IFN-α, % inhibition degree
Given measured inhibition at 1 µM, output Met if it is greater than or equal to 90% and Not met if not.

// inclusive: inhibition at 1 µM at least 90%? input: c1cc(-c2ccc3[nH]c4ncnc(N[C@H]5CC[C@H](N6CCOCC6)CC5)c4c3c2)ccn1 [Compound 6aab]
Met

Tell me whether inhibition at 1 µM is at least 90% here: Cn1cc(-c2ccc3[nH]c4ncnc(N[C@H]5CC[C@H](N6CCN(S(C)(=O)=O)CC6)CC5)c4c3c2)cn1 [Compound 6aca]
Met

API: above_or_equal(metric=inhibition at 1 µM, cutoff=90%) for item CCOC(=O)c1ccc2[nH]c3ncnc(N[C@H]4CC[C@H](N5CCOCC5)CC4)c3c2c1 [Compound 5ba]
Not met

Does the reported inhibition at 1 µM for Fc1cc(F)cc(-c2ccc3[nH]c4ncnc(N[C@H]5CC[C@H](N6CCOCC6)CC5)c4c3c2)c1 [Compound 6aal] fall at or above the 90% mark?
Not met

Is inhibition at 1 µM at least 90%? Consider Cn1cc(-c2ccc3[nH]c4nccc(N[C@H]5CC[C@H](N6CCOCC6)CC5)c4c3c2)cn1 [Compound 17a]
Met

Given COC(=O)c1ccc2c(c1)[nH]c1ncnc(N[C@H]3CC[C@H](N4CCOCC4)CC3)c12 [Compound 5da] , state whether its inhibition at 1 µM is at least 90%.
Not met

Could you please find out whether O=[N+]([O-])c1cccc(-c2ccc3[nH]c4ncnc(N[C@H]5CC[C@H](N6CCOCC6)CC5)c4c3c2)c1 [Compound 6aai] has inhibition at 1 µM that meets 90% or exceeds it?
Not met

# check: inhibition at 1 µM of COc1cncc(-c2ccc3[nH]c4ncnc(N[C@H]5CC[C@H](N6CCOCC6)CC5)c4c3c2)c1 [Compound 6aad] is greater than or equal to 90%
Met

Hi, just wondering whether c1cc(-c2ccc3[nH]c4ncnc(Nc5ccc(N6CCNCC6)cc5)c4c3c2)ccn1 [Compound 6agba] shows inhibition at 1 µM of 90% or higher.
Not met

====

Molecular target: UniProtKB Q9NWZ3
Assay: IRAK4 enzyme inhibition degree (bead-based kinase assay, peptide substrate BMKC-2, 100 μM ATP)
Assay type: biochemical
Conditions: compound 1 μM
metric name: inhibition at 1 µM (%)
Give the quantity in %, number only.

For the compound Fc1cncc(-c2ccc3[nH]c4ncnc(N[C@H]5CC[C@H](N6CCOCC6)CC5)c4c3c2)c1 , give its measured inhibition at 1 µM value.
100

Quickly give me recorded inhibition at 1 µM for c1nc(N[C@H]2CC[C@H](N3CCOCC3)CC2)c2c(n1)[nH]c1ccc(-c3cnn(C4CCNCC4)c3)cc12
78

Let me know recorded inhibition at 1 µM for c1nc(N[C@H]2CC[C@H](N3CCOCC3)CC2)c2c(n1)[nH]c1ccc(-c3nnc[nH]3)cc12 , thanks.
70

Return value of inhibition at 1 µM for input COC(=O)c1ccc2c(c1)[nH]c1nc(-c3cccc([N+](=O)[O-])c3)nc(N[C@H]3CC[C@H](N4CCOCC4)CC3)c12 [Compound 11b] , no commentary.
10

Tell me measured inhibition at 1 µM for N#Cc1cncc(-c2ccc3[nH]c4ncnc(N[C@H]5CC[C@H](N6CCOCC6)CC5)c4c3c2)c1 please.
74

For the compound O=[N+]([O-])c1cccc(-c2ccc3[nH]c4ncnc(N[C@H]5CC[C@H](N6CCOCC6)CC5)c4c3c2)c1 , report inhibition at 1 µM.
98

// Input: COC(=O)c1ccc2c(c1)[nH]c1ncnc(N[C@H]3CC[C@H](N4CCOCC4)CC3)c12 . Output its inhibition at 1 µM only.
99

====

Biological target: IRAK4 enzyme (Homo sapiens)
Sequence (Q9NWZ3 1-460): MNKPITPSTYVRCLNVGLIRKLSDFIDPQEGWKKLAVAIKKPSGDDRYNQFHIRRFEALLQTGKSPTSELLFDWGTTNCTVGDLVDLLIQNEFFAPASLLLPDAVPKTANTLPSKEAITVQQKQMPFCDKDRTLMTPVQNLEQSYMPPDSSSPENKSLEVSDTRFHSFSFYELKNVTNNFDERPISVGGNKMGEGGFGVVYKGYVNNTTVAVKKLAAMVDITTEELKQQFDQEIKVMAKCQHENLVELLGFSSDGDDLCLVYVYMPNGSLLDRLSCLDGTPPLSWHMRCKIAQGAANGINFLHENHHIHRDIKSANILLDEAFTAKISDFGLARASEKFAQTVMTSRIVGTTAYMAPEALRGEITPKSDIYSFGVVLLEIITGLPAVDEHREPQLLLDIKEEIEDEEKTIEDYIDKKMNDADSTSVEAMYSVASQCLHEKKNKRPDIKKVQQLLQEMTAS
Test: IRAK4 enzyme inhibition degree (bead-based kinase assay, peptide substrate BMKC-2, 100 μM ATP)
Type: biochemical
Settings: compound 1 μM
metric name: inhibition at 1 µM (%)
Enter your answer as a number in %; do not include the unit.

Using known records, supply inhibition at 1 µM for N#Cc1cccc(-c2ccc3[nH]c4ncnc(N[C@H]5CC[C@H](N6CCOCC6)CC5)c4c3c2)c1 [Compound 6aak]
98

Quickly give me recorded inhibition at 1 µM for c1cc(-c2ccc3[nH]c4ncnc(Nc5ccc(N6CCNCC6)cc5)c4c3c2)ccn1 [Compound 6agba]
42

Look up and report measured inhibition at 1 µM for this entry: Cn1cc(-c2ccc3[nH]c4ncnc(NCCN5CCN(C(=O)OC(C)(C)C)CC5)c4c3c2)cn1 [Compound 6afa]
36

Recall and state the measured inhibition at 1 µM for Cn1cc(-c2ccc3[nH]c4ncnc(NCCCN5CCOCC5)c4c3c2)cn1 [Compound 6aea] .
34

Supply reported inhibition at 1 µM belonging to this compound: Cn1cc(-c2ccc3[nH]c4ncnc(N[C@H]5CC[C@H](N(C)C)CC5)c4c3c2)cn1 [Compound 6abb]
82

# return recorded inhibition at 1 µM for entry Cc1nnc(-c2ccc3[nH]c4ncnc(N[C@H]5CC[C@H](N6CCOCC6)CC5)c4c3c2)o1 [Compound 6bae]
94

Tell me inhibition at 1 µM reported for COc1ccc(-c2ccc3[nH]c4ncnc(N[C@H]5CC[C@H](N6CCOCC6)CC5)c4c3c2)cn1 [Compound 6aah]
100

Please list inhibition at 1 µM recorded for the compound COc1cccc(-c2ccc3[nH]c4ncnc(N[C@H]5CC[C@H](N6CCOCC6)CC5)c4c3c2)c1 [Compound 6aaj]
99

Output measured inhibition at 1 µM for this item: CC(C)(C)OC(=O)N1CCC(n2cc(-c3ccc4[nH]c5ncnc(N[C@H]6CC[C@H](N7CCOCC7)CC6)c5c4c3)cn2)CC1 [Compound 6aaq]
59

Fill in reported inhibition at 1 µM for this entry: CN(C)[C@H]1CC[C@H](Nc2ncnc3[nH]c4ccc(-c5cncc(F)c5)cc4c23)CC1 [Compound 6aba]
83

Tell me inhibition at 1 µM reported for N#Cc1cc(F)cc(-c2ccc3[nH]c4ncnc(N[C@H]5CC[C@H](N6CCOCC6)CC5)c4c3c2)c1 [Compound 6aap]
56

For the compound CCOC(=O)c1ccc2[nH]c3ncnc(N[C@H]4CC[C@H](N(C)C)CC4)c3c2c1 [Compound 5bb] , give its measured inhibition at 1 µM value.
83

// Input: CS(=O)(=O)N1CCC(n2cc(-c3ccc4[nH]c5ncnc(N[C@H]6CC[C@H](N7CCOCC7)CC6)c5c4c3)cn2)CC1 [Compound 6aas] . Output its inhibition at 1 µM only.
79

Name the recorded inhibition at 1 µM of the item c1ncc(-c2ccc3[nH]c4ncnc(N[C@H]5CC[C@H](N6CCOCC6)CC5)c4c3c2)cn1 [Compound 6aac] in your answer.
100

State its inhibition at 1 µM: c1cc(-c2ccc3[nH]c4ncnc(N[C@H]5CC[C@H](N6CCOCC6)CC5)c4c3c2)ccn1 [Compound 6aab]
100

====

System: NF-κB promoter, THP1-Lucia™ NF-κB cell line
Assay: NF-κB promoter inhibition, THP1-Lucia NF-κB cell line
Type: cell-based
Details: 1 μM; 100 ng/ml LPS, 24 hours; read-out: NF-κB, % inhibition degree
Kindly supply the reported inhibition at 1 µM values for the records listed here.
Form entry: value (%) — number only.

Indicate the recorded inhibition at 1 µM value for this compound: Cn1cc(-c2ccc3[nH]c4ncnc(N[C@H]5CC[C@H](N6CCN(S(C)(=O)=O)CC6)CC5)c4c3c2)cn1
85

Give inhibition at 1 µM for the following compound: c1cc(-c2ccc3[nH]c4ncnc(N[C@H]5CC[C@H](N6CCOCC6)CC5)c4c3c2)ccn1
61

Retrieve inhibition at 1 µM measured for Fc1ccc(-c2ccc3[nH]c4ncnc(N[C@H]5CC[C@H](N6CCOCC6)CC5)c4c3c2)c(F)c1 and print it.
11

Give a short answer stating reported inhibition at 1 µM for c1ncc(-c2ccc3[nH]c4ncnc(N[C@H]5CC[C@H](N6CCOCC6)CC5)c4c3c2)cn1 .
64
